Data origin, for the record: paper PMC11561238

# TEST SYSTEM: recombinant human TDO2 (holo-TDO2) (Homo sapiens, UniProt P48775)
# Construct: a construct encoding amino acids 19–406 of human TDO2 with an N-terminal six histidine tag; PreScission protease cleavage site (linker) (N)
# Sequence (P48775 19-406): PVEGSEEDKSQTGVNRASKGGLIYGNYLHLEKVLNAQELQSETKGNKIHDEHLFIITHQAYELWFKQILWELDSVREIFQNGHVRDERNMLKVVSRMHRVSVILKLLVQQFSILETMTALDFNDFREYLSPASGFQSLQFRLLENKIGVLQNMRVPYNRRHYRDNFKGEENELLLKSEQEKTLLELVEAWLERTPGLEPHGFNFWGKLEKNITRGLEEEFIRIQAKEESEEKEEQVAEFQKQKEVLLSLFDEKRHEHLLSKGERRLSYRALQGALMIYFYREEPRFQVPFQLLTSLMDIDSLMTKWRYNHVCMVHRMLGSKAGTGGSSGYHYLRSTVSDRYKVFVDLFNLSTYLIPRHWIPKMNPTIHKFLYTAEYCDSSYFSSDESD
# EXPERIMENT SUMMARY: Holo-TDO2 enzymatic assay
# RECORDED CONDITIONS: 30 min assay at room temperature after 30 min pre-incubation with holo-TDO2; read-out: enzymatic assay IC50 (holo form of TDO2)
QUANTITY KIND: pIC50
// returns pIC50 (minus log10 of molar concentration), number only

Return pIC50 for the following compound: CCCc1ccccc1NC(=O)N(C(C)c1ccccc1)C1CCCn2c1nc(OC)c(C(=O)OCC)c2=O (stereo not shown) 4.76
